assay notes: Cytotoxicity against HUVEC assessed as concentration at which viability is > 95 % after 24 hrs by MTT assay
Format: cell-based
condition: human, HUVEC cells; read-out: MTD
readout name: MNTC at 24 h (µM)
State the answer as a number, implicitly in µM.

Worked cases, MNTC at 24 h given:
molecule | reported measurement
CCOC(=O)C1ON(c2ccccc2)C(c2ccc([N+](=O)[O-])cc2)C12C(=O)Nc1ccccc12 (stereo not given) | 218
CCOC(=O)C1ON(c2ccccc2)C(c2ccc(Cl)cc2)C12C(=O)Nc1ccccc12 (stereo not given) | 223
O=C(/C=C/C=C/c1ccc2c(c1)OCO2)N1CCCCC1 | 250

Input: Which MNTC at 24 h is listed for CCOC(=O)C1ON(c2ccccc2)C(c2ccc(F)cc2)C12C(=O)Nc1ccccc12 (stereo not given) ?
Output: 116

Input: How about CCOC(=O)C1ON(c2ccccc2)C(c2ccc(Br)cc2)C12C(=O)Nc1ccc(F)cc12 (stereo not given) ?
Output: 98

Input: How about CCOC(=O)C1ON(c2ccccc2)C(c2ccc(F)cc2)C12C(=O)Nc1ccc(F)cc12 (stereo not given) ?
Output: 111

Input: How about CCOC(=O)C1ON(c2ccccc2)C(c2ccc(C)cc2)C12C(=O)Nc1ccccc12 (stereo not given) ?
Output: 234

Input: How about CCOC(=O)C1C(c2ccc(C#N)cc2)N(c2ccccc2)OC12C(=O)Nc1ccc(F)cc12 (stereo not given) ?
Output: 110

Input: How about CCOC(=O)C1ON(c2ccccc2)C(c2ccc(F)c(F)c2)C12C(=O)Nc1ccc(F)cc12 (stereo not given) ?
Output: 107

Input: How about CCOC(=O)C1ON(c2ccccc2)C(c2cccc(OC)c2OC)C12C(=O)Nc1ccc(F)cc12 (stereo not given) ?
Output: 102

Input: How about CCOC(=O)C1C(c2ccc(F)cc2)N(c2ccccc2)OC12C(=O)Nc1ccccc12 (stereo not given) ?
Output: 231

* * *

assay notes: Cytotoxicity against HUVEC assessed as concentration at which viability is > 95 % after 24 hrs by MTT assay
Assay type: cell-based
condition: human, HUVEC cells; read-out: MTD
readout name: MNTC at 24 h
Answers without a unit are incomplete; give the number and then its unit.

Worked cases, MNTC at 24 h given:
compound | MNTC at 24 h
CCOC(=O)C1C(c2cccc([N+](=O)[O-])c2)N(c2ccccc2)OC12C(=O)Nc1ccccc12 (centres undefined) | 218 µM
CCOC(=O)C1ON(c2ccccc2)C(c2cc(OC)c(OC)c(OC)c2)C12C(=O)Nc1ccc(F)cc12 (centres undefined) | 96 µM
CCOC(=O)C1ON(c2ccccc2)C(c2ccc(OCC)cc2)C12C(=O)Nc1ccc(F)cc12 (centres undefined) | 105 µM
CCOC(=O)C1ON(c2ccccc2)C(c2ccc(C(F)(F)F)cc2)C12C(=O)Nc1ccc(F)cc12 (centres undefined) | 100 µM
CCOC(=O)C1C(c2ccc(Cl)cc2)N(c2ccccc2)OC12C(=O)Nc1ccccc12 (centres undefined) | 223 µM
CCOC(=O)C1ON(c2ccccc2)C(c2cccc(C)c2)C12C(=O)Nc1ccc(F)cc12 (centres undefined) | 112 µM
CCOC(=O)C1C(c2cccc(F)c2)N(c2ccccc2)OC12C(=O)Nc1ccccc12 (centres undefined) | 116 µM
CCOC(=O)C1ON(c2ccccc2)C(c2cccc([N+](=O)[O-])c2)C12C(=O)Nc1ccccc12 (centres undefined) | 218 µM

# evaluate next
Input: Which MNTC at 24 h is listed for CCOC(=O)C1ON(c2ccccc2)C(c2cccc(C)c2)C12C(=O)Nc1ccccc12 (centres undefined) ?
Output: 234 µM

* * *

assay notes: Cytotoxicity against HUVEC assessed as cell viability after 24 hrs by MTT assay relative to control
Format: cell-based
Set-up: concentration or dose not given beside the values
condition: human, HUVEC cells; read-out: Activity
readout name: viability at 24 h (%)
State the answer as a number, implicitly in %.

Worked cases, viability at 24 h given:
compound | unit of measure | viability at 24 h
O=C(/C=C/C=C/c1ccc2c(c1)OCO2)N1CCCCC1 | % | 98
CCOC(=O)C1C(c2ccc(Br)cc2)N(c2ccccc2)OC12C(=O)Nc1ccccc12 (centres undefined) | % | 96
CCOC(=O)C1ON(c2ccccc2)C(c2cccc(F)c2)C12C(=O)Nc1ccc(F)cc12 (centres undefined) | % | 95
CCOC(=O)C1ON(c2ccccc2)C(c2ccc(OC)cc2)C12C(=O)Nc1ccc(F)cc12 (centres undefined) | % | 96
CCOC(=O)C1ON(c2ccccc2)C(c2ccc(F)cc2)C12C(=O)Nc1ccc(F)cc12 (centres undefined) | % | 96

Input: Which viability at 24 h is listed for CCOC(=O)C1C(c2ccc([N+](=O)[O-])cc2)N(c2ccccc2)OC12C(=O)Nc1ccccc12 (centres undefined) ?
Output: 97

Input: How about CCOC(=O)C1ON(c2ccccc2)C(c2cccc([N+](=O)[O-])c2)C12C(=O)Nc1ccccc12 (centres undefined) ?
Output: 96

Input: How about CCOC(=O)C1ON(c2ccccc2)C(c2ccc(C)cc2)C12C(=O)Nc1ccccc12 (centres undefined) ?
Output: 99

Input: How about CCOC(=O)C1C(c2cccc(C)c2)N(c2ccccc2)OC12C(=O)Nc1ccccc12 (centres undefined) ?
Output: 96

Input: How about CCOC(=O)C1C(c2cccc(Cl)c2)N(c2ccccc2)OC12C(=O)Nc1ccccc12 (centres undefined) ?
Output: 97

Input: How about CCOC(=O)C1ON(c2ccccc2)C(c2ccc(Br)cc2)C12C(=O)Nc1ccc(F)cc12 (centres undefined) ?
Output: 98

Input: How about CCOC(=O)C1C(c2ccc(C#N)cc2)N(c2ccccc2)OC12C(=O)Nc1ccc(F)cc12 (centres undefined) ?
Output: 98

Input: How about CCOC(=O)C1C(c2ccc(C)cc2)N(c2ccccc2)OC12C(=O)Nc1ccccc12 (centres undefined) ?
Output: 96

Input: How about CCOC(=O)C1ON(c2ccccc2)C(c2ccc(C(F)(F)F)cc2)C12C(=O)Nc1ccc(F)cc12 (centres undefined) ?
Output: 96

Input: How about CCOC(=O)C1ON(c2ccccc2)C(c2ccc([N+](=O)[O-])cc2)C12C(=O)Nc1ccccc12 (centres undefined) ?
Output: 97

Input: How about CCOC(=O)C1ON(c2ccccc2)C(c2cccc(C)c2)C12C(=O)Nc1ccccc12 (centres undefined) ?
Output: 98

Input: How about CCOC(=O)C1ON(c2ccccc2)C(c2cccc(Br)c2)C12C(=O)Nc1ccccc12 (centres undefined) ?
Output: 95

Input: How about CCOC(=O)C1C(c2ccc(F)cc2)N(c2ccccc2)OC12C(=O)Nc1ccccc12 (centres undefined) ?
Output: 96

Input: How about CCOC(=O)C1ON(c2ccccc2)C(c2cc(OC)c(OC)c(OC)c2)C12C(=O)Nc1ccc(F)cc12 (centres undefined) ?
Output: 97

* * *

assay notes: Cytotoxicity against HUVEC assessed as concentration at which viability is > 95 % after 24 hrs by MTT assay
Format: cell-based
condition: human, HUVEC cells; read-out: MTD
MNTC at 24 h under 200 µM gets 1.0, anything at or over 200 µM gets 0.0.

molecule | class label
CCOC(=O)C1ON(c2ccccc2)C(c2cccc(F)c2)C12C(=O)Nc1ccc(F)cc12 (centres undefined) | 1.0

Input: Is the reported MNTC at 24 h for CCOC(=O)C1ON(c2ccccc2)C(c2ccc(Cl)cc2)C12C(=O)Nc1ccc(F)cc12 (centres undefined) strictly below 200 µM?
Output: 1.0

Input: How about CCOC(=O)C1ON(c2ccccc2)C(c2ccc(OC)cc2)C12C(=O)Nc1ccc(F)cc12 (centres undefined) ?
Output: 1.0

Input: How about CCOC(=O)C1C(c2ccc([N+](=O)[O-])cc2)N(c2ccccc2)OC12C(=O)Nc1ccccc12 (centres undefined) ?
Output: 0.0

Input: How about CCOC(=O)C1C(c2cccc(Cl)c2)N(c2ccccc2)OC12C(=O)Nc1ccccc12 (centres undefined) ?
Output: 0.0

Input: How about CCOC(=O)C1ON(c2ccccc2)C(c2ccc(C#N)cc2)C12C(=O)Nc1ccc(F)cc12 (centres undefined) ?
Output: 1.0

* * *

viability at 24 h values for the compounds below.
assay notes: Cytotoxicity against HUVEC assessed as cell viability after 24 hrs by MTT assay relative to control
Format: cell-based
Parameters: concentration or dose not given beside the values
condition: human, HUVEC cells; read-out: Activity
Answers without a unit are incomplete; give the number and then its unit.

compound | reported measurement
CCOC(=O)C1C(c2cccc(OC)c2OC)N(c2ccccc2)OC12C(=O)Nc1ccc(F)cc12 (centres undefined) | 99%

Input: Which viability at 24 h is listed for CCOC(=O)C1ON(c2ccccc2)C(c2ccc(N(C)C)cc2)C12C(=O)Nc1ccc(F)cc12 (centres undefined) ?
Output: 96%

Input: How about CCOC(=O)C1C(c2cccc(F)c2)N(c2ccccc2)OC12C(=O)Nc1ccccc12 (centres undefined) ?
Output: 98%

Input: How about CCOC(=O)C1ON(c2ccccc2)C(c2ccc(C#N)cc2)C12C(=O)Nc1ccc(F)cc12 (centres undefined) ?
Output: 96%

Input: How about CCOC(=O)C1ON(c2ccccc2)C(c2cccc(Cl)c2)C12C(=O)Nc1ccccc12 (centres undefined) ?
Output: 96%

Input: How about CCOC(=O)C1ON(c2ccccc2)C(c2ccccc2F)C12C(=O)Nc1ccc(F)cc12 (centres undefined) ?
Output: 96%

Input: How about CCOC(=O)C1C(c2ccc(Cl)cc2)N(c2ccccc2)OC12C(=O)Nc1ccccc12 (centres undefined) ?
Output: 96%

Input: How about CCOC(=O)C1ON(c2ccccc2)C(c2ccc(Br)cc2)C12C(=O)Nc1ccccc12 (centres undefined) ?
Output: 98%
